- experimental_target: Leucine-rich repeat serine/threonine-protein kinase 2 (Homo sapiens, UniProt Q5S007)
- Sequence (Q5S007 whole entry): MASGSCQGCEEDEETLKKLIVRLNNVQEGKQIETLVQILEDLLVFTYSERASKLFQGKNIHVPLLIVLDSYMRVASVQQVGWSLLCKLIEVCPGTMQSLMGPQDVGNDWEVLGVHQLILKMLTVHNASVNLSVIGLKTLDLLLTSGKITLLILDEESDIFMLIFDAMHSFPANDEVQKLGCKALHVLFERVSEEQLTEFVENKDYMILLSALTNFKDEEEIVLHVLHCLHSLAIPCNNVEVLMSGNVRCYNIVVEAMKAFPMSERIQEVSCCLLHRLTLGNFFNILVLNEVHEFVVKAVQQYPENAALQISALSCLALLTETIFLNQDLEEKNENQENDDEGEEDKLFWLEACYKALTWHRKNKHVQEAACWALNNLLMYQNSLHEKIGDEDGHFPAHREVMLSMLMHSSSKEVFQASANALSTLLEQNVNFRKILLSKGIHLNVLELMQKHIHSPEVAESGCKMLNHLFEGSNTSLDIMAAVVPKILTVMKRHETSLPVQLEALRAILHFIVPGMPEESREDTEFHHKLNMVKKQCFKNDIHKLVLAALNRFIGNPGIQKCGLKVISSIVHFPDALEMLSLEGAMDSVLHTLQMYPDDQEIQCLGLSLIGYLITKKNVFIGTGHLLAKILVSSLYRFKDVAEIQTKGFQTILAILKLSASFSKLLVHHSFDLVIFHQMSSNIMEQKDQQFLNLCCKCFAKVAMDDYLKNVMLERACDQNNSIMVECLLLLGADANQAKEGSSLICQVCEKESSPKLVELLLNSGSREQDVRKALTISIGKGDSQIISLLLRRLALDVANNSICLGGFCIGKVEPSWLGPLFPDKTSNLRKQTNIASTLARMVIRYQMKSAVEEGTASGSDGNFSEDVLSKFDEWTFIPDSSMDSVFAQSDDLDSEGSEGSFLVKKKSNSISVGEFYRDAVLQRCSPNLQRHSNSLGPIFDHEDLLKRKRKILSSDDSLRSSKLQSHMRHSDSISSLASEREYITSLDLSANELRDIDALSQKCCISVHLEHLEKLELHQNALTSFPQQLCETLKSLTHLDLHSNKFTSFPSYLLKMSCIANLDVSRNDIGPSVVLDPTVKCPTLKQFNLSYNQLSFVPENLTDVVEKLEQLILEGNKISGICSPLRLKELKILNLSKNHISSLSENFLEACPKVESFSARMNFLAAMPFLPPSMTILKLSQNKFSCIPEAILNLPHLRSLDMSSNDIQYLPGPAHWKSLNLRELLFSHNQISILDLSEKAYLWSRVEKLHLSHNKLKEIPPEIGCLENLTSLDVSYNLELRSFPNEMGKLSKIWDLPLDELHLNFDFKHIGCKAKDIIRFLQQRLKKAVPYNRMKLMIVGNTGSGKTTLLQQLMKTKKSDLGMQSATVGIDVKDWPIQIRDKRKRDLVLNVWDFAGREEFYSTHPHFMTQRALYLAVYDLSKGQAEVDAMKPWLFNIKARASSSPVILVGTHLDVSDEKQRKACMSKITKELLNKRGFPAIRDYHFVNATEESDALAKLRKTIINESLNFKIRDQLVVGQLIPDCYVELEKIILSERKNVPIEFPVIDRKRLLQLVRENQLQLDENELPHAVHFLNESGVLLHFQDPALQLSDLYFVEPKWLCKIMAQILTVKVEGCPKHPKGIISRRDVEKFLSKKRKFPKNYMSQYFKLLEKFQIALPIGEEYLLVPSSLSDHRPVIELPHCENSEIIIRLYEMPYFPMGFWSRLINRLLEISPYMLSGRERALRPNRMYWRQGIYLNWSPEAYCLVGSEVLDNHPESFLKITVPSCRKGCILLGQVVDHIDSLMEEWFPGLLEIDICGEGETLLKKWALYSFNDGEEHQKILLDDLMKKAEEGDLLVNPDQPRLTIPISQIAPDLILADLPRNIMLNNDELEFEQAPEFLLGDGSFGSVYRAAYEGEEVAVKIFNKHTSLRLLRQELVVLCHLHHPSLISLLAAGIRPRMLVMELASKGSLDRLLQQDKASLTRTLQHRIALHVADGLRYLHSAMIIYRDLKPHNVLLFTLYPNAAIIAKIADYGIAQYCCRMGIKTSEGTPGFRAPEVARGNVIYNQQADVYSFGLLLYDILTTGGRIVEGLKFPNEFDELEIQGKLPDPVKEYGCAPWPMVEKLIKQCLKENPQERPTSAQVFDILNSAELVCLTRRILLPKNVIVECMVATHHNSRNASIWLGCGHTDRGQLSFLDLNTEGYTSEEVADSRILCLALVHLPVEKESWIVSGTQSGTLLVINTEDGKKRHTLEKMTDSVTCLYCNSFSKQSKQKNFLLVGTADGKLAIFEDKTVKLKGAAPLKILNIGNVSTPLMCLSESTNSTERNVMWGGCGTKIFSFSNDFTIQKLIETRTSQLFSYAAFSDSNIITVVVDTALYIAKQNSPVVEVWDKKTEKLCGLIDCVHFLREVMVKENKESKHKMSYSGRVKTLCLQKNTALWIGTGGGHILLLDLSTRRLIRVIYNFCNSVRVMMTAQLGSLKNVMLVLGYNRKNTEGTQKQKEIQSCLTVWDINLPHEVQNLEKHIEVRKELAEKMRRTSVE
- assay_explanation: Inhibition of LRRK2 (unknown origin)
This listing pairs molecules with measured pKi.
// pKi here means minus log10 of the molar concentration (mol/L)

molecule	assay_value
CNc1nc(Nc2cnn3c2C(C)O[C@@H](C)C3)ncc1C(F)(F)F (some centres undefined)	8.22
CNc1nc(Nc2cnn(C(C)(C)C#N)c2C)ncc1C(F)(F)F	9.00
CNc1nc(Nc2cn(C(C)(C)C#N)nc2C)ncc1C(F)(F)F [DNL-201]	9.15

Next, consider the following molecule.
The recorded pKi for entry CNc1nc(Nc2cnn(C3CCOCC3)c2C)ncc1C(F)(F)F equals 8.70

====

- assay_explanation: Volume of distribution in Sprague-Dawley rat at 0.5 mg/kg, iv
- Format: ADME, organism-based
- Set-up: dose 0.5 mg/kg, route intravenous
- condition_summary: in vivo
result_type: Vd (L/kg)
Answer with a number only, understood to be in L/kg.

The recorded Vd for entry CNc1nc(Nc2cnn(C3CCOCC3)c2C)ncc1C(F)(F)F equals 1.1

====

This listing pairs molecules with measured clearance.
- assay_explanation: Clearance in Sprague-Dawley rat at 1 mg/kg, po and 0.5 mg/kg, iv
- Type: ADME, organism-based
- condition_summary: in vivo
A complete answer gives the number followed by the unit.

Examples with their reported clearance follow.
molecule	result_type	assay_value
CNc1nc(Nc2cn(C(C)(C)C#N)nc2C)ncc1C(F)(F)F [DNL-201]	clearance	44 mL/min/kg
CNc1nc(Nc2cn(C3(C#N)CC3)nc2C)ncc1C(F)(F)F	clearance	55 mL/min/kg
CNC(=O)C(C)(C)n1cc(Nc2ncc(C(F)(F)F)c(NC)n2)c(C)n1	clearance	12 mL/min/kg

The recorded clearance for entry CNc1nc(Nc2cnn(C3CCN(C4COC4)CC3)c2C)ncc1C(F)(F)F equals 22 mL/min/kg

The recorded clearance for entry CNc1nc(Nc2cnn([C@H]3CCN(C4COC4)C[C@@H]3F)c2Cl)ncc1C(F)(F)F (relative stereo) equals 26 mL/min/kg

The recorded clearance for entry CNc1nc(Nc2cnn(C3CCOCC3)c2C)ncc1C(F)(F)F equals 74 mL/min/kg

The recorded clearance for entry CNc1nc(Nc2cnn(C3(C#N)CC3)c2Cl)ncc1C(F)(F)F equals 22 mL/min/kg

The recorded clearance for entry CNc1nc(Nc2cnn3c2C(C)OCC3)ncc1C(F)(F)F (configuration not stated) equals 43 mL/min/kg

The recorded clearance for entry CNc1nc(Nc2cn([C@H]3CCN(C4COC4)C[C@H]3F)nc2C)ncc1C(F)(F)F (relative stereo) equals 16 mL/min/kg

The recorded clearance for entry CNc1nc(Nc2cnn(C(C)(C)C#N)c2C)ncc1C(F)(F)F equals 65 mL/min/kg

The recorded clearance for entry CNc1nc(Nc2cnn(C3COC3)c2C)ncc1C(F)(F)F equals 56 mL/min/kg

The recorded clearance for entry CCNc1nc(Nc2cc(C(C)(C)C#N)nn2C)ncc1C(F)(F)F equals 27 mL/min/kg

====

- assay_explanation: Half life in Sprague-Dawley rat at 1 mg/kg, po and 0.5 mg/kg, iv
- Assay type: ADME, organism-based
- condition_summary: in vivo
result_type: half-life (h)
Answer with a number only, understood to be in h.

The recorded half-life for entry CNc1nc(Nc2cnn(C3CCN(C4COC4)CC3)c2C)ncc1C(F)(F)F equals 2.1

====

- assay_explanation: Clearance in human hepatocytes at 1 uM by LC-MS/MS analysis
- Assay type: ADME, cell-based, Hepatocyte
This listing pairs compounds with measured CLhep predicted at 1 µM.
Answer with a number only, understood to be in mL/min/kg.

compound	CLhep predicted at 1 µM / mL/min/kg
CNc1nc(Nc2cn(C(C)(C)C#N)nc2C)ncc1C(F)(F)F [DNL-201]	3
CNc1nc(Nc2cnn(C3CCN(C4COC4)CC3)c2C)ncc1C(F)(F)F	3
CNc1nc(Nc2cn(C3(C#N)CC3)nc2C)ncc1C(F)(F)F	5
CNc1nc(Nc2cnn3c2C(C)OCC3)ncc1C(F)(F)F (stereo not given)	3
CCNc1nc(Nc2cc(C(C)(C)C#N)nn2C)ncc1C(F)(F)F	5

The recorded CLhep predicted at 1 µM for entry CNc1nc(Nc2cnn(C3(C#N)CC3)c2Cl)ncc1C(F)(F)F equals 9

The recorded CLhep predicted at 1 µM for entry CNc1nc(Nc2cnn(C3CCOCC3)c2C)ncc1C(F)(F)F equals 5

====

Record type: pIC50 measurement. Applies to: Leucine-rich repeat serine/threonine-protein kinase 2 (Homo sapiens, UniProt Q5S007)
// pIC50 here means minus log10 of the molar concentration (mol/L)

Examples with their reported pIC50 follow.
test_smiles	assay_value
CNc1nc(Nc2cn(C(C)(C)C#N)nc2C)ncc1C(F)(F)F	8.52
CCNC(=O)C(C)(C)n1cc(Nc2ncc(C(F)(F)F)c(NC)n2)c(C)n1	7.00
CNc1nc(Nc2cn(C(C)(C)C(=O)NC(C)C)nc2C)ncc1C(F)(F)F	6.85

Next, consider the following molecule.
The recorded pIC50 for entry CNc1nc(Nc2cn(C3(C#N)CC3)nc2C)ncc1C(F)(F)F equals 7.52

====

- assay_explanation: Oral bioavailability in cynomolgus monkey at 1 to 20 mg/kg
- Format: ADME, organism-based, Macaca fascicularis
- condition_summary: in vivo
result_type: bioavailability
A complete answer gives the number followed by the unit.

The recorded bioavailability for entry CNc1nc(Nc2cnn(CC(C)(C)O)c2Cl)ncc1C(F)(F)F equals 5%

====

- assay_explanation: Half life in Sprague-Dawley rat at 0.5 mg/kg, iv
- Type: ADME, organism-based
- Set-up: dose 0.5 mg/kg, route intravenous
- condition_summary: in vivo
result_type: half-life

The recorded half-life for entry CNc1nc(Nc2cnn(C3CCOCC3)c2C)ncc1C(F)(F)F equals 10.2 min

====

- assay_explanation: Plasma protein binding in cynomolgus monkey at 5 uM after 4 hrs by equilibrium dialysis technique
- Assay type: ADME, cell-free, Macaca fascicularis
- condition_summary: read-out: PPB (converted)
This listing pairs molecules with measured fraction unbound at 4 h, 5 µM.

molecule	fraction unbound at 4 h, 5 µM
CNc1nc(Nc2cnn([C@H]3CCN(C4COC4)C[C@@H]3F)c2Cl)ncc1C(F)(F)F (relative stereo)	0.179

Next, consider the following molecule.
The recorded fraction unbound at 4 h, 5 µM for entry CNc1nc(Nc2cn(C(C)(C)C#N)nc2C)ncc1C(F)(F)F [DNL-201] equals 0.197

====

- assay_explanation: Ratio of unbound drug level in brain to plasma in Sprague-Dawley rat
- Format: ADME, organism-based
This listing pairs compounds with measured Kp uu.
Keep it simple and answer with nothing but the number.

Examples with their reported Kp uu follow.
compound	Kp uu
CNc1nc(Nc2cnn(C3CCOCC3)c2C)ncc1C(F)(F)F	0.3
CNc1nc(Nc2cnn(C3COC3)c2C)ncc1C(F)(F)F	0.3
CNc1nc(Nc2cn(C(C)(C)C#N)nc2C)ncc1C(F)(F)F	0.6
CNc1nc(Nc2cn([C@H]3CCN(C4COC4)C[C@H]3F)nc2C)ncc1C(F)(F)F (relative stereo)	0.08

Next, consider the following compound.
The recorded Kp uu for entry CNc1nc(Nc2cnn(C3(C#N)CC3)c2Cl)ncc1C(F)(F)F equals 0.6

====

This listing pairs molecules with measured CLhep predicted at 1 µM.
- assay_explanation: Clearance in human hepatocytes at 1 uM by LC-MS/MS analysis
- Format: ADME, cell-based, Hepatocyte
Answer with a number only, understood to be in mL/min/kg.

molecule	CLhep predicted at 1 µM / mL/min/kg
CNc1nc(Nc2cnn3c2COC(C)(C)C3)ncc1C(F)(F)F	12

The recorded CLhep predicted at 1 µM for entry CNc1nc(Nc2cn([C@H]3CCN(C4COC4)C[C@H]3F)nc2C)ncc1C(F)(F)F (relative stereo) equals 1

The recorded CLhep predicted at 1 µM for entry CNc1nc(Nc2cnn3c2C(C)O[C@@H](C)C3)ncc1C(F)(F)F (stereo partly drawn) equals 8
